REPORTED_ENDPOINT: melting point

Cc1c(O)cccc1C(=O)N[C@@H](Cc1ccccc1)[C@H](O)C(=O)N1CSC(C)(C)[C@H]1C(=O)N[C@H]1CCSc2ccccc21 [Example A19] : 125 to 127 °C
Cc1c(O)cccc1C(=O)N[C@@H](Cc1ccccc1)[C@H](O)C(=O)N1CSC(C)(C)[C@H]1C(=O)N[C@H]1CCc2ccccc21 [Example A35] : 204 to 206 °C

Lab note: next molecule to report on.
Look up melting point: Cc1c(O)cccc1C(=O)N[C@@H](Cc1ccccc1)[C@H](O)C(=O)N1CSC(C)(C)[C@H]1C(=O)NC1CCC(C)CC1 (stereo partly drawn) [Example A36] 192 to 194 °C

###

Target: HIV-1 protease (Q7S mutant form) (Human immunodeficiency virus type 1 group M subtype B, UniProt P04585, Q495S)
Construct: made in house
Test: HIV-1 Protease RET assay
Format: biochemical
Conditions: Ki, unit inferred
Listed compounds paired with reported pKi
Would you please state pKi, meaning minus log10 of the concentration in mol/L, as a bare number?

CC1(C)SCN(C(=O)[C@@H](O)[C@H](Cc2ccccc2)NC(=O)CSc2nc[nH]n2)[C@@H]1C(=O)N[C@@H]1C=CCCC1 : 8.21

What value of pKi has been reported for the following compound? CC1(C)SCN(C(=O)[C@@H](O)[C@H](Cc2ccccc2)NC(=O)CSc2nc[nH]n2)[C@@H]1C(=O)NCC#N 7.55

// lookup pKi for Cc1ccccc1CNC(=O)[C@H]1N(C(=O)[C@@H](O)[C@H](Cc2ccccc2)NC(=O)CNc2ccc(F)cc2)CSC1(C)C 8.22

Any idea what its pKi is? The compound is Cc1ccccc1CNC(=O)C1N(C(=O)[C@@H](O)C(Cc2ccccc2)NC(=O)C(C)(C)C)CSC1(C)C (stereo partly shown) 7.33

Which pKi is listed for C/C=C(/C)C(=O)N[C@@H](Cc1ccccc1)[C@H](O)C(=O)N1CSC(C)(C)[C@H]1C(=O)NCc1ccccc1C ? 8.12

Any idea what pKi was measured for Cc1ccccc1CNC(=O)[C@@H]1N(C(=O)[C@@H](O)[C@H](Cc2ccccc2)NC(=O)c2cccc(O)c2C)CSC12CCC2 ? 7.52

Can you look up the measured pKi of Cc1ccccc1CNC(=O)C1N(C(=O)[C@@H](O)[C@H](Cc2ccccc2)NC(=O)CSc2nc3ccccc3[nH]2)CSC1(C)C (stereo partly shown) for me? 7.76

###

Quick list: Ki per entry.
Biological target: HIV-1 protease (Q7S mutant form) (Human immunodeficiency virus type 1 group M subtype B, UniProt P04585, Q495S)
Construct: made in house
Test: HIV-1 Protease RET assay
Format: biochemical
Details: Ave. Ki (nM), RET assay, Q7S enzyme, Morrison tight binding fit
Protocol: Ki's for the inhibitors of HIV-1 protease were determined using a resonance energy transfer (RET) assay. […] This enzyme is first partially purified as inclusion bodies from cell lysate. […] The commercially available peptide substrate (Molecular Probes Cat. # H-2930) RE(EDANS)SQNYPIVQK(DABCYL)R is used to assess activity and Ki's. This peptide is cleaved quantitatively by HIV-1 Pr at the Tyr-Pro bond. […]
The answer is to be given in nM; state only the numeric part.

Would you please look over these solved cases?
Cc1c(F)cccc1C(=O)N[C@@H](Cc1ccccc1)[C@H](O)C(=O)N1CSC(C)(C)[C@H]1C(=O)N[C@H]1CCc2ccccc21 [Example B82] : 0.19
Cc1c(O)cccc1C(=O)N[C@@H](Cc1ccccc1)[C@H](O)C(=O)N1CSC(C)(C)[C@H]1C(=O)NN(C)c1ccccc1 [Example A57] : 5.6
Cc1c(O)cccc1C(=O)N[C@@H](Cc1ccccc1)[C@H](O)C(=O)N1CC(F)(F)C[C@H]1C(=O)NCc1ccc2c(c1)OCO2 [Example C11] : 2.8

Read the next record carefully.
Recorded Ki for Cc1ccccc1CNC(=O)[C@H]1N(C(=O)[C@@H](O)[C@H](Cc2ccccc2)NC(=O)O[C@H]2CCOC2)COC1(C)C [Example C47] , please? 1.4

###

Target: HIV-1 protease (Q7S mutant form) (Human immunodeficiency virus type 1 group M subtype B, UniProt P04585, Q495S)
Construct: made in house
Assay: HIV-1 Protease RET assay
Assay type: biochemical
Conditions: Ki, unit inferred
REPORTED_ENDPOINT: Ki
Quick note: number first, unit second.

Cc1ccccc1CNC(=O)[C@H]1N(C(=O)[C@@H](O)[C@H](Cc2ccccc2)NC(=O)CCN)CSC1(C)C : 156 nM

Return reported Ki; argument: Cc1cccc(C)c1OCC(=O)N[C@@H](Cc1ccccc1)[C@H](O)C(=O)N1CSC(C)(C)[C@H]1C(=O)NCc1c(F)cccc1F 0.32 nM

Quick one: Ki of C#CC(C)OC(=O)N[C@@H](Cc1ccccc1)[C@H](O)C(=O)N1CSC(C)(C)[C@H]1C(=O)NCc1ccccc1C (stereo partly drawn) ? 5.4 nM

Data request, read-out Ki, for Cc1ccccc1CNC(=O)[C@H]1N(C(=O)[C@@H](O)[C@H](Cc2ccccc2)NC(=O)C(F)(F)F)CSC1(C)C 17.1 nM

Which value of Ki has been reported for C=CC(C)COC(=O)NC(Cc1ccccc1)[C@H](O)C(=O)N1CSC(C)(C)C1C(=O)NCc1ccccc1C (stereo partly drawn) in the records? 15.1 nM

Give the measured Ki of Cc1ccccc1CNC(=O)[C@H]1N(C(=O)[C@@H](O)[C@H](Cc2ccccc2)NC(=O)OC2CCC3CCCC3C2)CSC1(C)C (stereo partly drawn) . 148 nM

###

Ki values for the molecules below.
Molecular target: HIV-1 protease (Q7S mutant form) (Human immunodeficiency virus type 1 group M subtype B, UniProt P04585, Q495S)
Construct: made in house
Test: HIV-1 Protease RET assay
Format: biochemical
Settings: Ave. Ki (nM), RET assay, Q7S enzyme, Morrison tight binding fit

Sample answers from the record:
C=CCCC(=O)[C@H]1N(C(=O)[C@@H](O)[C@H](Cc2ccccc2)NC(=O)c2cccc(O)c2C)CSC1(C)C [Example D1] : < 0.1 nM
CCCNC(=O)[C@H]1N(C(=O)[C@@H](O)[C@H](Cc2ccccc2)NC(=O)c2cccc(O)c2C)CSC12CCC2 : < 0.1 nM

Query: Ki; subject: Cc1c(O)cccc1C(=O)N[C@@H](Cc1ccccc1)[C@H](O)C(=O)N1CSC(C)(C)[C@H]1C(=O)N[C@H]1CCc2ccccc21 < 0.1 nM

###

Molecular target: HIV-1 protease (Q7S mutant form) (Human immunodeficiency virus type 1 group M subtype B, UniProt P04585, Q495S)
Construct: made in house
Assay: HIV-1 Protease RET assay
Format: biochemical
Settings: Ave. Ki (nM), RET assay, Q7S enzyme, Morrison tight binding fit
Description: Ki's for the inhibitors of HIV-1 protease were determined using a resonance energy transfer (RET) assay. […] This enzyme is first partially purified as inclusion bodies from cell lysate. […] The commercially available peptide substrate (Molecular Probes Cat. # H-2930) RE(EDANS)SQNYPIVQK(DABCYL)R is used to assess activity and Ki's. This peptide is cleaved quantitatively by HIV-1 Pr at the Tyr-Pro bond. […]
Catalogue of log10 of Ki values
Values reflect log10 of reported Ki (nM).

// worked examples, log10 of Ki included
CC1(C)SCN(C(=O)[C@@H](O)[C@H](Cc2ccccc2)NC(=O)NCc2ccccc2)[C@@H]1C(=O)NCc1ccccc1 : 1.23
C#CCOC(=O)N[C@@H](Cc1ccccc1)[C@H](O)C(=O)N1CSC(C)(C)[C@H]1C(=O)NCc1ccc(OC)cc1 : -0.28

Value lookup for log10 of Ki; key = CC1(C)SCN(C(=O)[C@@H](O)[C@H](Cc2ccccc2)NC(=O)[C@@H]2CCCO2)[C@@H]1C(=O)NCc1ccco1 1.18

Can you share its log10 of Ki? I mean this molecule: Cc1ccccc1CNC(=O)[C@@H]1C2CCC(C2)N1C(=O)[C@@H](O)[C@H](Cc1ccccc1)NC(=O)c1cccc(O)c1C (stereo partly drawn) 0.90

# query: log10 of Ki of entry CC1(C)SCN(C(=O)[C@@H](O)[C@H](Cc2ccccc2)NC(=O)c2cccc3c2CCN3)[C@@H]1C(=O)NCc1ccco1 0.28

###

Test system: HIV-1 (HIV-1 RF, HIV-1 NL4-3) in CEM-SS / MT-2 cells
Experiment: Cytopathic effect (CPE) inhibition assay (XTT/MTT dye reduction)
Type: cell-based
Settings: Human immunodeficiency virus 1, NL43, unit inferred; read-out: EC50
pEC50: −log10 of the molar value.
REPORTED_ENDPOINT: pEC50

Cc1ccccc1CNC(=O)[C@H]1C(C(=O)[C@@H](O)[C@H](Cc2ccccc2)NC(=O)c2cccc(O)c2C)[C@@H]2CC[C@@H]1C2 (stereo partly shown) : ≤ 5.00
Cc1ccccc1CNC(=O)[C@H]1N(C(=O)[C@@H](O)[C@H](Cc2ccccc2)NC(=O)COc2cccc3ccccc23)CSC1(C)C : ≤ 5.49
Cc1ccccc1CNC(=O)[C@H]1N(C(=O)[C@@H](O)[C@H](Cc2ccccc2)NC(=O)COc2cccc(N3CCOCC3)c2)CSC1(C)C : ≤ 5.49

Okay, next one:
Can you look up the measured pEC50 of CCC(=O)NC(Cc1ccccc1)[C@H](O)C(=O)N1CSC(C)(C)C1C(=O)NCc1ccccc1C (stereo partly shown) for me? ≤ 5.49

These measurements were taken from patent US7094909B2.
